Counter-ions that a name gives are not always drawn.
attribute measured: melting point

Examples from the recorded data:
{"columns": ["compound", "melting point"],
 "data": [
  ["CNC[C@@H]1CCCc2cc(S(=O)(=O)c3cccc(OC)c3)ccc21 (as salt: HCl) [Compound 50]", "265 to 266 °C"],
  ["CC1(C)CN=C(NCC2CCCc3ccc(S(=O)(=O)c4ccccc4)cc32)NC1 (stereo not shown) [Compound 11]", "140 to 145 °C"],
  ["N#Cc1cccc(S(=O)(=O)c2ccc3c(c2)CCC[C@H]3CN)c1 (as salt: oxalate) [Compound 52]", "212 to 213 °C"]
]}

Let us move to another entry and its melting point.
// query melting point value for entry CNC[C@H]1CCCc2cc(S(=O)(=O)c3ccccc3)ccc21 (as salt: TFA) [Compound 40] 146 to 147 °C
